System: Hs-578T
Test: NCI tumour cell line growth inhibition, 48 h
The source made the active and inactive calls. Rule as the data show it: active = GI50 up to about 1.1 µM and inactive = higher.
RECORDED_METRIC: GI50

>>> result("CC1=CC(=O)/C(=C/NC(N)=S)C(=O)O1")
"> 100 µM (inactive)"
>>> result("COc1ccc2c(c1O)-c1c(OC)c(OC)cc3c1[C@H](C2)[N+](C)(C)CC3")
"> 100 µM (inactive)"
>>> result("N=C(N)SCc1ccc(Cl)c2ccccc12.O=[N+]([O-])c1c(O)c(Cl)cc(Cl)c1Cl")
"17.9 µM (inactive)"
>>> result("CSc1nc(C)cc(Nc2ccc(O)c(CN3CCCCC3)c2)n1")
"> 100 µM (inactive)"
>>> result("Cn1c(Sc2ccc(-c3cccnc3)n2C)ccc1-c1cccnc1")
"3.7 µM (inactive)"

* * *

Test system: COLO 205
Assay: NCI tumour cell line growth inhibition, 48 h
Calls of active or inactive are those of the source. No stated cut-off is given here; in the data, active = GI50 up to about 1.1 µM and inactive = higher.
RECORDED_METRIC: GI50

>>> result("CCCCCC(=O)N[C@H]1CCc2cc(OC)c(OC)c(OC)c2-c2ccc(SC)c(=O)cc21")
"0.0122 µM (active)"
>>> result("C(=N\\C12CC3CC(CC(C3)C1)C2)/C1CCCCC1")
"> 100 µM (inactive)"
>>> result("CC(=O)OC1CC[C@@]2(C)C(C1)CC(OC(C)=O)[C@@H]1C2CC(OC(C)=O)[C@]2(C)C(C(C)CC=C(c3ccc(Cl)cc3)c3ccc(Cl)cc3)CCC12 (stereo not given in full)")
"> 100 µM (inactive)"
>>> result("CCCCCC(C[N+]1(C)CCOCC1)C(=O)/C=C/c1ccccc1 (stereo not given)")
"15.7 µM (inactive)"
>>> result("O=C1NC(=S)S/C1=C/c1ccco1")
"> 100 µM (inactive)"
>>> result("Cn1cc/c(=N\\N=c2/ccn(C)c3ccccc23)c2ccccc21")
"10.4 µM (inactive)"
>>> result("O=C1CSC2(CC(/C=C/c3ccccc3O)=NN2c2cccc(S(=O)(=O)O)c2)N1c1nc2ccccc2s1 (stereo not given)")
"29.9 µM (inactive)"
>>> result("COc1cc(-c2cn(S(=O)(=O)c3ccc(C)cc3)c3ccccc23)nc(-c2cn(S(=O)(=O)c3ccc(C)cc3)c3ccccc23)n1")
"0.745 µM (active)"
>>> result("CCOC(=O)NC(=O)c1cn(CCOCCOC(=O)NCCCCCCNC(=O)OCCOCCn2cc(C(=O)NC(=O)OCC)c(=O)[nH]c2=O)c(=O)[nH]c1=O")
"> 100 µM (inactive)"
>>> result("NC(=O)C1CCCNC1 (stereo not given)")
"> 100 µM (inactive)"
>>> result("Cc1c(C(=O)O)n2cnnc2c2ccccc12")
"> 100 µM (inactive)"
>>> result("C#CC[C@@H]1C(=O)N(Cc2ccc(OC)cc2)[C@@H](C(C)C)C(=O)N1Cc1ccc(OC)cc1")
"19.4 µM (inactive)"
>>> result("O=C1/C(=C/c2ccc(O)cc2)CCC1CNc1ccccc1 (stereo not given)")
"11.1 µM (inactive)"
>>> result("CCCCC(=O)OCC(=O)[C@]1(O)Cc2c(O)c3c(c(O)c2[C@@H](OC2CC(NC(=O)C(F)(F)F)C(O)C(C)O2)C1)C(=O)c1c(OC)cccc1C3=O (stereo not given in full)")
"1.11 µM (active)"
>>> result("O=c1ccn(COC(COCc2ccccc2)COCc2ccccc2)c(=O)[nH]1")
"> 100 µM (inactive)"
>>> result("Nc1nc(N)c(-c2ccc(Cl)cc2)c(CCC(=O)Nc2cccc(C(F)(F)F)c2)n1")
"> 100 µM (inactive)"
>>> result("CCOC(=O)N(Cc1cccs1)c1cc(OC)c(OC)c(OC)c1")
"7.18 µM (inactive)"
>>> result("C/C(=C\\c1ccccc1)C(O)S(=O)(=O)O (stereo not given)")
"> 100 µM (inactive)"
>>> result("COc1ccc(OC(=O)CC2Cc3cc(OC)c(OC)c(OC)c3-c3ccc(SC)c(=O)cc32)cc1 (stereo not given)")
"0.403 µM (active)"
>>> result("C=C(CO)[C@H]1Oc2ccc(C(C)=O)cc2[C@@H]1O")
"> 100 µM (inactive)"

All figures here come from ChEMBL document CHEMBL1201862.
